target-desc: human opioid δ receptor (Homo sapiens, UniProt P41143)
Sequence (P41143 whole entry): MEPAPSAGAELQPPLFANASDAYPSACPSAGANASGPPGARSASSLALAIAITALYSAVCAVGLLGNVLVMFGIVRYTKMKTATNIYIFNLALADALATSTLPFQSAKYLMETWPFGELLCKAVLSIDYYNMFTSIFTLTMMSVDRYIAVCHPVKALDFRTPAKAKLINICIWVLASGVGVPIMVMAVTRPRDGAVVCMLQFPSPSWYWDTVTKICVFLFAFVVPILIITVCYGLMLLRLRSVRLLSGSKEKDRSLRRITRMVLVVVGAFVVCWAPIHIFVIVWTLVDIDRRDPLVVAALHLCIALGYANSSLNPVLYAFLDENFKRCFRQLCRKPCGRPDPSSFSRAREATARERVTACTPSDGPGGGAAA
protocol-description: Opioid receptor function test (Lance Ultra cAMP Kit), δ receptor
condition-notes: CHO cells expressing human δ receptor, cAMP, in the presence of forskolin; read-out: δ receptor EC° C.
pEC50: −log10 of the molar value. Structures can show the parent of a compound that is named as a salt.
# pEC50 values compiled below
result-type: pEC50

1) O=C([C@H]1CCCN1)N1C[C@H]2C[C@@]34CC[C@@H]1[C@@H]2[C@@]31CCN(CC2CC2)[C@@H]4Cc2ccc(O)cc21 [Example 2, dihydrochloride]	> 8.52
2) CN1CCC[C@@H]1C(=O)N1C[C@H]2C[C@@]34CC[C@@H]1[C@@H]2[C@@]31CCN(CC2CC2)[C@@H]4Cc2ccc(O)cc21 [Example 9]	> 8.52
3) O=C1CC[C@H](C(=O)N2C[C@H]3C[C@@]45CC[C@@H]2[C@@H]3[C@@]42CCN(CC3CC3)[C@@H]5Cc3ccc(O)cc32)O1 [Example 13]	> 8.52
4) O=C([C@H]1CCCNC1)N1C[C@H]2C[C@@]34CC[C@@H]1[C@@H]2[C@@]31CCN(CC2CC2)[C@@H]4Cc2ccc(O)cc21 [Example 6, dihydrochloride]	> 8.52
5) O=C([C@H]1CCCO1)N1C[C@H]2CC34CCC1C2C31CCN(CC2CC2)C4Cc2ccc(O)cc21 (stereo partly drawn) [Example 12]	> 9.00
6) O=C([C@H]1CCCCN1)N1C[C@H]2C[C@@]34CC[C@@H]1[C@@H]2[C@@]31CCN(CC2CC2)[C@@H]4Cc2ccc(O)cc21 [Example 4, dihydrochloride]	> 8.52
